Item-by-item account of glycan array binding signal (z-score)
biological target: Neu5Ac(a2-6)GalNAc; assay: glycan array binding signal (z-score within array); higher = stronger binding; conditions: glycan notation: IUPAC condensed, linker removed
This excerpt belongs to a sample that is enriched for the strongest signals.
// no unit, no text: just the number

Can you look up the measured glycan array binding signal (z-score) of TbCVNHOb (Tuber borchii) (protein) MSFYASSEDVRTIEEGGRTWLVGRARRADGSWQDIKLDLDNIIGNRDGHLTWGEQNFTQSASDIRFNFEGGSNVPVLRAKLRNAAGGEQESDLNLGERLTNNNGDLVFN for me? -0.28

Can you look up the measured glycan array binding signal (z-score) of pilr alpha (protein) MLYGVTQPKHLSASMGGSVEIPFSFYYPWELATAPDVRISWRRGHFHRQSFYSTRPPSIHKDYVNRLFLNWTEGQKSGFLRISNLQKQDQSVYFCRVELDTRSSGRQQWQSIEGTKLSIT for me? -0.546
